target: WIZ (Homo sapiens, UniProt O95785+Q96SW2); construct: expressed in transfected cells; experiment: Quantification of WIZ protein levels in HiBit tag fusion protein assay (WIZ HiBit assay in 293T cells); assay type: cell-based; details: HEK-293T, 100 minus Amax at 25 uM; read-out: % degradation of WIZ (100-Amax)
Sequence (O95785 whole entry, the tested form may be a part): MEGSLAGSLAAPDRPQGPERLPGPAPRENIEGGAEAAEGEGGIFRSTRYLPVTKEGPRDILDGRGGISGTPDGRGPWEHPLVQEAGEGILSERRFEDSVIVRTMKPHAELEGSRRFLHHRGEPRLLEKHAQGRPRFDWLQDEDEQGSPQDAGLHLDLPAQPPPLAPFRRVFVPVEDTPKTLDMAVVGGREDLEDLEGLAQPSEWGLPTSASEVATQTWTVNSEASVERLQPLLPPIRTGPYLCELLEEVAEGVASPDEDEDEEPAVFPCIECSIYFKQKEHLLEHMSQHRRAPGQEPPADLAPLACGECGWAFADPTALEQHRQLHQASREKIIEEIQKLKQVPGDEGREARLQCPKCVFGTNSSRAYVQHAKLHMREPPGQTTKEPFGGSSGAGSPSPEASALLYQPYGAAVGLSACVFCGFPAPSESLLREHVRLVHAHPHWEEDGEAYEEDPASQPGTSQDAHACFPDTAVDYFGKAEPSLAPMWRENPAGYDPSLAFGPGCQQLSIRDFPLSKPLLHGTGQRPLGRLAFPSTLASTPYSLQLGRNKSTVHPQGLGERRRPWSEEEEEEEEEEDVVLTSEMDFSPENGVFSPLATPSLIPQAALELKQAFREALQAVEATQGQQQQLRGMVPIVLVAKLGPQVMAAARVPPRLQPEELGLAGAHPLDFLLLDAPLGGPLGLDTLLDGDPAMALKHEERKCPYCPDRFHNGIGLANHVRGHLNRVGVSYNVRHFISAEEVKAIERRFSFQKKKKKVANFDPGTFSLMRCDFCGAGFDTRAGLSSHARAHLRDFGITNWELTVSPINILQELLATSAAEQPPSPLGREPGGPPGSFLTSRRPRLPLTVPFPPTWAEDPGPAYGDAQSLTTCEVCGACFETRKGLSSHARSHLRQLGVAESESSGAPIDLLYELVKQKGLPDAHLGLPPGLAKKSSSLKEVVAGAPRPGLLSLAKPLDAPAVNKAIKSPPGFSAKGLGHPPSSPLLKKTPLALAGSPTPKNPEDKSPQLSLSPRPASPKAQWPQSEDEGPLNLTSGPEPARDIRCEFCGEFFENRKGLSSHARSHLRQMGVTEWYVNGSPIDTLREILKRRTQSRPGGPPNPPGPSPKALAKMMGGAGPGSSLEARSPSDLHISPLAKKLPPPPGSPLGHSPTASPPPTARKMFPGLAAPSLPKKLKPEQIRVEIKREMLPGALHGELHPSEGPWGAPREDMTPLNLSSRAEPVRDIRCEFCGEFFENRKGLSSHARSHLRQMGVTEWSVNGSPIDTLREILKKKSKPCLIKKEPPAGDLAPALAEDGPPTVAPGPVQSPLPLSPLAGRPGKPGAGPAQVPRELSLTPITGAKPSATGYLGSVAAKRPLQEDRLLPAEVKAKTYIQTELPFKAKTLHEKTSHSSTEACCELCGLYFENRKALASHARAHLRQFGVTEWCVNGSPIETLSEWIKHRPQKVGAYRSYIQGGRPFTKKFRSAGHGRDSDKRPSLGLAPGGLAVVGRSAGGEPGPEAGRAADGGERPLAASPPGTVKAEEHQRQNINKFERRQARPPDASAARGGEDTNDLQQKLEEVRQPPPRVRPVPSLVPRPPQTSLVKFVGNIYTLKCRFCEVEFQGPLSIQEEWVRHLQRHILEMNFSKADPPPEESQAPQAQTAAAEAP
Sequence (Q96SW2 whole entry, the tested form may be a part): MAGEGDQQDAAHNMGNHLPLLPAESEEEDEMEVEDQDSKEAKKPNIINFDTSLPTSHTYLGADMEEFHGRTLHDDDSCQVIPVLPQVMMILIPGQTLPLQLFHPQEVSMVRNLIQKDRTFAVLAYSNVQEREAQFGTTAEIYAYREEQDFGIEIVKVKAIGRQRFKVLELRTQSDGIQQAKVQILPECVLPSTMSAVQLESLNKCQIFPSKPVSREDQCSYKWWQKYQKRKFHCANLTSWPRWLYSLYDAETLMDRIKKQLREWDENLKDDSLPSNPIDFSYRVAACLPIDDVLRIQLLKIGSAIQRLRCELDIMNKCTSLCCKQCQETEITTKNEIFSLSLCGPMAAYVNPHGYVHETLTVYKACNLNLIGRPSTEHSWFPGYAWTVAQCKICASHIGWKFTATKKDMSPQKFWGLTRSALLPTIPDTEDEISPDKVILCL
Sequence (Q16531 whole entry partner, the tested form may be a part): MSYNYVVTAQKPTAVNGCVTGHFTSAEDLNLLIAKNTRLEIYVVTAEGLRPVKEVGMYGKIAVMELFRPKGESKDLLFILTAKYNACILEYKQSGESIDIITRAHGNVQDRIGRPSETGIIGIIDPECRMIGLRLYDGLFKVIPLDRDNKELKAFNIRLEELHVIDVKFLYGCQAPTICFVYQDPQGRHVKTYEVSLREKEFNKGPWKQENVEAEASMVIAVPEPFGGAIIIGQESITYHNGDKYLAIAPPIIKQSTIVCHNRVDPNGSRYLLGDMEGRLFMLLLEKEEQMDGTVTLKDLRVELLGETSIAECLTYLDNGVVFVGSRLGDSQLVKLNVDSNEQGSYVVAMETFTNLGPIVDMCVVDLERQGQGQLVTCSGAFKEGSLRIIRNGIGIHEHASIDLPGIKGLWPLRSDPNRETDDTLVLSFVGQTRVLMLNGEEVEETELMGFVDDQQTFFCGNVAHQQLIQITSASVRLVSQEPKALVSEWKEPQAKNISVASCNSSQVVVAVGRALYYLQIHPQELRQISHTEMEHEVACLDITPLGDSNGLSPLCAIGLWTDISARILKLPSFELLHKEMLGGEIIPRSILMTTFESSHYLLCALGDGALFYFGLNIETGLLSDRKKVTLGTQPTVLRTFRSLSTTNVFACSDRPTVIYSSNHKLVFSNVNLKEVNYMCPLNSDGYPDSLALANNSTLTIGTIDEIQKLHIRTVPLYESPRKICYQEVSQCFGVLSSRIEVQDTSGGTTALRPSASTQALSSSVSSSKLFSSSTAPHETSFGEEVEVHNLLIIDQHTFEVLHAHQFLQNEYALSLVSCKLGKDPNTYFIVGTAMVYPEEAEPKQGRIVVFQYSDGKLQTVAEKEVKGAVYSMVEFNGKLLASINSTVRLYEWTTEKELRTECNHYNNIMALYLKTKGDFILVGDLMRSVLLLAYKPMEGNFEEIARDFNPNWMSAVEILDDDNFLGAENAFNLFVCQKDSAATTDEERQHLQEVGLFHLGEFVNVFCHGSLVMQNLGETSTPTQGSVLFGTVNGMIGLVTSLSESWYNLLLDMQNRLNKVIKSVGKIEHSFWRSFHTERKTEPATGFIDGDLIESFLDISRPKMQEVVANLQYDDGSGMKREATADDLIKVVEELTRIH
Give measured Dmax at 25 µM for each item. Keep answers brief.
The reply should read as a number followed by its unit.

Below, 4 compounds whose answers are already recorded.
O=C1CCN(c2noc3ccc(CN4CCN(Cc5cccc(F)c5)CC4)cc23)C(=O)N1 : 86%
CN1C[C@H]2CC[C@@H](C1)N2Cc1ccc2onc(N3CCC(=O)NC3=O)c2c1 : 86%
CC(C)[C@H]1CN(Cc2ccc3onc(N4CCC(=O)NC4=O)c3c2)CCN1C : 80%
CC(C)C(=O)N1CCN(Cc2ccc3onc(N4CCC(=O)NC4=O)c3c2)CC1 : 82%

Hey, can you go through the list below and give me Dmax at 25 µM for every item?
1. O=C1CCN(c2noc3ccc(CN4CCN(Cc5cccnc5)CC4)cc23)C(=O)N1
2. O=C1CCN(c2noc3ccc(CN4CCN5[C@@H](CCS5(=O)=O)C4)cc23)C(=O)N1
3. C[C@@H]1CN(CC2CCOCC2)C[C@H](C)N1Cc1ccc2onc(N3CCC(=O)NC3=O)c2c1
4. O=C1CCN(c2noc3ccc(CC4CCN(CC5CCCCC5)C4)cc23)C(=O)N1 (centres unmarked)

// result
1: 86%; 2: 87%; 3: 73%; 4: 87%
